Hey, just so you know, these numbers are from the kinase profiling compilation of Christmann-Franck et al. (2016).

Biological target: MAP4K5 (human) (UniProt Q9Y4K4)
Sequence (Q9Y4K4 whole entry, looked up): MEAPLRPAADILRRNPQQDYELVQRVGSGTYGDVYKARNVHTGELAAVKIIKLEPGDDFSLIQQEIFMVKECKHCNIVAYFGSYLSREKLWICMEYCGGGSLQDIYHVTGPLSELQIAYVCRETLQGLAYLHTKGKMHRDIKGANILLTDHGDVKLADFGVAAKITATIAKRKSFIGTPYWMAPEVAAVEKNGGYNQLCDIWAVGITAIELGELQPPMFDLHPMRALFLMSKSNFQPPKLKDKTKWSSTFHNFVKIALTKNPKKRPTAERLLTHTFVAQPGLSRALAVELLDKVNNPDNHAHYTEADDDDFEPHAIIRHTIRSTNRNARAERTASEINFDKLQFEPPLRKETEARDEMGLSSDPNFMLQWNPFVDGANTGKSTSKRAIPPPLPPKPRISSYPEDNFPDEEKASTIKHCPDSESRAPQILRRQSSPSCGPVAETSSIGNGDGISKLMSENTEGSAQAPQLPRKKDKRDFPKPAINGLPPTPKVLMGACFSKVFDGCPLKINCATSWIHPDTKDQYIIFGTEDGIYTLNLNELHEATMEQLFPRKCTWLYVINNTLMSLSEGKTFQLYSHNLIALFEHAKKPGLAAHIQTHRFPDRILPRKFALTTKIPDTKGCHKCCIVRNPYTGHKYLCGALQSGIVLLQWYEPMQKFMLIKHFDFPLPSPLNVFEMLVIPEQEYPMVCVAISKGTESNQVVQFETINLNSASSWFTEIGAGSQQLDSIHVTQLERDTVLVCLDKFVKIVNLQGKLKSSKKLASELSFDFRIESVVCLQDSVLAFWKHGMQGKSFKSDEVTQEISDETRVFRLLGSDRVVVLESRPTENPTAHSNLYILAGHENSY
Assay: KINOMEscan competition binding
Conditions: compound 10.0 µM
For each record, write down the corresponding kinase still bound, per cent of control.
Quick note: give the figure in %, leave out the unit.

Provide measured kinase still bound, per cent of control on MAP4K5 (human) (UniProt Q9Y4K4) for Nc1ccc(-c2ccc3ncc4ccc(=O)n(-c5cccc(C(F)(F)F)c5)c4c3c2)cn1 please.
100

Provide measured kinase still bound, per cent of control on MAP4K5 (human) (UniProt Q9Y4K4) for COc1cc(C(=O)NC2CCN(C)CC2)ccc1Nc1ncc2c(n1)N(C1CCCC1)CCC(=O)N2C(C)C please.
100

Provide measured kinase still bound, per cent of control on MAP4K5 (human) (UniProt Q9Y4K4) for C[C@@H](Oc1cc(-n2cnc3ccc(CN4CCN(C)CC4)cc32)sc1C(N)=O)c1ccccc1C(F)(F)F please.
68

Provide measured kinase still bound, per cent of control on MAP4K5 (human) (UniProt Q9Y4K4) for O=C1Nc2ccc(I)cc2/C1=C/c1cc(Br)c(O)c(Br)c1 please.
100

Provide measured kinase still bound, per cent of control on MAP4K5 (human) (UniProt Q9Y4K4) for CCCS(=O)(=O)Nc1ccc(F)c(C(=O)c2c[nH]c3ncc(-c4ccc(Cl)cc4)cc23)c1F please.
6.4

Provide measured kinase still bound, per cent of control on MAP4K5 (human) (UniProt Q9Y4K4) for O=C(NOC[C@H](O)CO)c1ccc(F)c(F)c1Nc1ccc(I)cc1F please.
69

Provide measured kinase still bound, per cent of control on MAP4K5 (human) (UniProt Q9Y4K4) for Cc1ccc2nc(NCCN)c3ncc(C)n3c2c1 please.
96

Provide measured kinase still bound, per cent of control on MAP4K5 (human) (UniProt Q9Y4K4) for CCN1CCN(Cc2ccc(Nc3ncc4c(n3)N(C)c3ccccc3C(=O)N4C)cc2C(F)(F)F)CC1 please.
35

Provide measured kinase still bound, per cent of control on MAP4K5 (human) (UniProt Q9Y4K4) for C=CC(=O)Nc1cccc(Nc2nc(N[C@H]3CC[C@H](N(C)C)CC3)nc3c2ncn3C(C)C)c1 please.
60

Provide measured kinase still bound, per cent of control on MAP4K5 (human) (UniProt Q9Y4K4) for Cn1c(=O)n(-c2ccc(C(C)(C)C#N)cc2)c2c3cc(-c4cnc5ccccc5c4)ccc3ncc21 please.
100

Provide measured kinase still bound, per cent of control on MAP4K5 (human) (UniProt Q9Y4K4) for C=CC(=O)Nc1cc(NC(=O)c2ccc(C)c(NC(=O)c3ccno3)c2)cc(C(F)(F)F)c1 please.
100

Provide measured kinase still bound, per cent of control on MAP4K5 (human) (UniProt Q9Y4K4) for CCOc1cc2ncc(C#N)c(Nc3ccc(OCc4ccccn4)c(Cl)c3)c2cc1NC(=O)/C=C/CN(C)C please.
0.85

Provide measured kinase still bound, per cent of control on MAP4K5 (human) (UniProt Q9Y4K4) for N#Cc1c(NC(=O)c2cccc3ccccc23)sc2c1CCCC2 please.
65

Provide measured kinase still bound, per cent of control on MAP4K5 (human) (UniProt Q9Y4K4) for OCCCNc1cc(-c2ccnc(Nc3cccc(Cl)c3)n2)ccn1 please.
100

Provide measured kinase still bound, per cent of control on MAP4K5 (human) (UniProt Q9Y4K4) for O=C(NC1CC1)c1cccc(-c2ccc3c(NC(=O)C4CC4)n[nH]c3c2)c1 please.
24

Provide measured kinase still bound, per cent of control on MAP4K5 (human) (UniProt Q9Y4K4) for O=C(O)c1ccc(Nc2ncc3c(n2)-c2ccc(Cl)cc2C(c2c(F)cccc2F)=NC3)cc1 please.
96

Provide measured kinase still bound, per cent of control on MAP4K5 (human) (UniProt Q9Y4K4) for Cc1ccc(C(=O)Nc2cccc(C(F)(F)F)c2)cc1Nc1cncc(C(N)=O)c1 please.
100

Provide measured kinase still bound, per cent of control on MAP4K5 (human) (UniProt Q9Y4K4) for Cc1ccc(NC(=O)c2cccc(C(C)(C)C#N)c2)cc1Nc1ccc2ncn(C)c(=O)c2c1 please.
59

Provide measured kinase still bound, per cent of control on MAP4K5 (human) (UniProt Q9Y4K4) for COc1cc(N2CCN(C)CC2)ccc1Nc1nc(N)c(C(=O)c2c(Cl)cccc2Cl)s1 please.
78
